These measurements were taken from the supplement of paper PMC10126150.

Tested on: ATP;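 note: ATP exposure 15 min at 22 °C before imaging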
Assay: switch fluorescence ratio, 500 uM ATP over buffer (Cy3 cluster intensity, sum of 5 cycles each) (fold (ratio)); higher = stronger signal-on switching upon ATP binding; sequences stand for … in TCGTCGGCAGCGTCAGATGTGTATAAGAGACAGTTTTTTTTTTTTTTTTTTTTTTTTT…TC
Conditions: aptamer strand: ATP DNA aptamer (quencher-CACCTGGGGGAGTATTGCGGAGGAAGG + anchor), 100 nM annealed; ATP concentration: 500 uM
Reported switch fluorescence ratio values for the following sequences.
MEASURED_PROPERTY: switch fluorescence ratio

1. GTTTTACCGG = 1
2. CCCTGTAGGA = 1.04
3. CACTCATTTT = 0.98
4. ATGAAAGGTT = 0.975
5. CGGGTTTAAT = 0.94
6. AATGGGTATT = 0.987
7. TGGTTGGTGT = 1.06
8. AAAGGGTGCT = 1.1
9. TGGGGACGTG = 1.01
10. ATCGGAATTG = 1.01
11. ATTGGACAAT = 1.02
12. GGGGTCAGAC = 1
13. TCGGGGGTAG = 0.985
14. CCGAGGGCAG = 2.75
15. AAAGTGTTGG = 1.02
16. TACTGATTCA = 1.02
17. CCTCTGGTTT = 2.84
18. TTTGGACAGT = 0.978
19. CAGGGCAAGG = 1.12
20. AATTTTTAT = 1
21. AACAACTCCA = 1.02
22. TGGGGACGCT = 0.998
23. TTCCCACTAC = 2.63
24. AAGAGAGGGT = 0.998
25. GGTATCTTAG = 0.986
26. CGTACATGAT = 1.02
27. GTGGTTCCAA = 0.993
28. GGTTGTCCAG = 0.997
29. GGGGAGACTG = 0.956
30. AACGAGTGAC = 1.04
31. TATTAGGGGT = 1.01
32. AATCTGCCCA = 1.04
33. ACTCCGTCTT = 1.44
34. ATAACGGAGG = 0.977
35. AGGGTTATTC = 1
36. TTAAGTTAGG = 1.02
37. TATTGACAGA = 1.02
38. GTGAGTCGGG = 0.987
39. AAAACCAGAC = 1.53
40. CTAATGGACC = 1.01
41. AAGGGGCGT = 0.996
42. ACGAAGGTCT = 0.998
43. TAAGAATTTG = 1.22
